All figures here come from ChEMBL document CHEMBL3988442.

Tgt: Aspartate--tRNA(Asp/Asn) ligase (Mycobacterium tuberculosis (strain ATCC 25618 / H37Rv)) (UniProt P9WFW3)
Sequence (P9WFW3 whole entry): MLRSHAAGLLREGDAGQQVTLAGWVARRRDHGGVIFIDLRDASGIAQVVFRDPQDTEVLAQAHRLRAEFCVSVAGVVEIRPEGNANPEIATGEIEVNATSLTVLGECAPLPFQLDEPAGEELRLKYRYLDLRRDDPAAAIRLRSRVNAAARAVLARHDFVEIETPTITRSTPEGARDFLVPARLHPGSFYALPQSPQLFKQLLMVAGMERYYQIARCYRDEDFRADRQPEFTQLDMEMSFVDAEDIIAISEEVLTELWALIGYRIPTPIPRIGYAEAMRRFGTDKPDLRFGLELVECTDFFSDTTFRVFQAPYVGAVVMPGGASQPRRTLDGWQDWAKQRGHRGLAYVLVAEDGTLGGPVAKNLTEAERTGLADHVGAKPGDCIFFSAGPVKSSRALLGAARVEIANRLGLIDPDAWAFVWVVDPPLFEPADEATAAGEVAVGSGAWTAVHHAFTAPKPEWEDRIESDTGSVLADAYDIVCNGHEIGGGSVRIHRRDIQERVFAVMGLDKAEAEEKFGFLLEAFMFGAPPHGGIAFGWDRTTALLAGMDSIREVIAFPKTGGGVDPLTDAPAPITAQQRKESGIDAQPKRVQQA
Experimental details: Assay for Asp RNA synthetase-1 from Mycobacterium tuberculosis
Format: functional
Parameters: scale not given: in the data most compounds retested in dose-response had high values
Condition parameters: 30 µM
Each entry below lists one item and its recorded Percent Effect value.
Supply the numeric figure in %, leaving out any unit text.

Compound	Recorded endpoint	Recorded result
CC(C(N)=O)N(C)CCCc1cc(-c2ccccc2)no1 (stereo unspecified)	Percent Effect	4.08
O=C(CCc1ccccc1)Nc1ncccc1OC(F)F	Percent Effect	-3.26
COCC(=O)N1CCCC1c1ccnc(Nc2cnccn2)n1 (stereo unspecified)	Percent Effect	0.0744
CC(=O)N1[C@H](CN(C)C)C[C@@H]2CN(C(=O)c3cccc(F)c3)CC[C@@H]21	Percent Effect	-0.523
Cc1[nH]/c(=N\C(=O)c2csc(NC3CC3)n2)sc1C	Percent Effect	-4.09

# lookup: Percent Effect of O=C(c1cccc(CNS(=O)(=O)c2ccccc2F)c1)N1CCCC1
5.13

And for CCOc1ccc2[nH]c(=O)c(CN3CCC(O)CC3)cc2c1 ?
-6.3

And for O=C(NCCNc1ccc(C(F)(F)F)cn1)c1ccc(Br)cc1F ?
-0.778

And for CC(C)c1nc(C(=O)NCCn2ccnc2)nn1-c1cccc(F)c1 ?
-3.06

And for CCc1nc(CN(C)CC(c2cccs2)N2CCOCC2)no1 (stereo unspecified) ?
-4.22

And for CN1CCN(c2cc(CCNC(=O)C3CCC3)nc(C3CC3)n2)CC1 ?
-3.83
